Entry source: patent US20140357577A1

Test system: HIV mutant virus strain HXB2D with mutation Q40H in the gp41 gene
Assay: Standard AVE, HXB2D site directed mutant Q40H
Type: cell-based, HIV-1
Conditions: fold change vs wild type strain HXB2D
Description: • Standard Anti-Viral-Experiment “AVE” (wild type HIV strain IIIB+HIV strain HXB2D side directed mutants V38A and Q40H) The HIV-1 replication assay measures virus replication (HIV wild type virus strain 111B or HXB2D, or a HIV mutant virus strain HXB2D with mutation V38A or Q40H in the gp41 gene) as an induction of enhanced green fluorescent protein (EGFP) expression. The indicator MT4-LTR-EGFP cells contain an EGFP gene under the control of the HIV-1 LTR promoter sequence. […]
Assay readout: HIV-HXB2D Q40H mutant (fold change in EC50)

{"columns": ["Substance", "Assay value"],
 "data": [
  ["Ac-ACYAACIEALIRAAQEQQEKNEAALR-NH2 [Peptide 68]", ">67"],
  ["ANYAALIEALIRAAQEQQEKNEAALR [Peptide 2]", ">28"],
  ["ANYLALIEELIRAAQEQQEKNEAALR [Peptide 10]", ">695"]
]}
